Biological target: T1, Expi293-derived TF-His (human (Example 17 does not restate the …, UniProt P13726 33-251))
T1 construct: Glycosylated TF ECD-His6 from Expi293 cells; also called Expi293-derived TF protein; TF ECD-His6
Assay: protein ELISA, plate coated with Expi293-derived TF-His, antibody titrated, HRP secondary, luminescence
Below is a list of entries, each paired with its recorded pEC50 value.
For clarity, pEC50 is expressed as the negative log10 of concentration in mol/L.

Solved entries (count: 2):
Give the measured pEC50 for 25A3 (antibody, human IgG1, V domains shown, Human IgG1; also called antibody designated 25A3) VH: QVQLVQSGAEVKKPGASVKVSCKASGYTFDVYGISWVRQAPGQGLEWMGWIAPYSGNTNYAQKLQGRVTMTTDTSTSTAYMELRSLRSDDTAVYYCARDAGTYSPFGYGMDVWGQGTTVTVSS VL: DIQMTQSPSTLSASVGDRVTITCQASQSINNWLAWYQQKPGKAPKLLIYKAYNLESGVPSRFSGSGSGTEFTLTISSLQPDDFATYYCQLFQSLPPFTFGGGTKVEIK
9.33

Give the measured pEC50 for 25A (antibody, human IgG1, V domains shown, Human IgG1; also called antibody designated 25A) VH: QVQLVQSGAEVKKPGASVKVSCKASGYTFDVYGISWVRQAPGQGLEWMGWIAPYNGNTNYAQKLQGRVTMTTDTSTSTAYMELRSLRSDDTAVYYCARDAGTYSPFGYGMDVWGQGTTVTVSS VL: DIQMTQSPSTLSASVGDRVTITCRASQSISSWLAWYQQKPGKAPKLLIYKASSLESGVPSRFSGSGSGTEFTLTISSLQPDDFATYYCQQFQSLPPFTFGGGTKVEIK
9.27

---
Give the measured pEC50 for 54E (antibody, human IgG1, V domains shown, Human IgG1; also called antibody designated 54E) VH: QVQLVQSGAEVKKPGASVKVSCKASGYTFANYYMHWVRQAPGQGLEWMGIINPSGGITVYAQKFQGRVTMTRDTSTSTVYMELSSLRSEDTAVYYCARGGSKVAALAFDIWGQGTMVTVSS VL: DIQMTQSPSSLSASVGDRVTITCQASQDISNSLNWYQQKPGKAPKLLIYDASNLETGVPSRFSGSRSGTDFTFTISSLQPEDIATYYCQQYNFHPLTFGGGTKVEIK
9.02

Give the measured pEC50 for 25G1 (antibody, human IgG1, V domains shown, Human IgG1; also called antibody designated 25G1) VH: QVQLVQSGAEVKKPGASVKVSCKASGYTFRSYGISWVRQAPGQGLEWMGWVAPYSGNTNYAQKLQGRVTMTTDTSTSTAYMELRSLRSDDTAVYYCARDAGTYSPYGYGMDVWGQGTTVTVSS VL: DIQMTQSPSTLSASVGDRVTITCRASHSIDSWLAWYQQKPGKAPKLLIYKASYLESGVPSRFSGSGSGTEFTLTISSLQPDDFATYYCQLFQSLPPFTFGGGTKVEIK
9.38

Give the measured pEC50 for 39A (antibody, human IgG1, V domains shown, Human IgG1; also called antibody designated 39A) VH: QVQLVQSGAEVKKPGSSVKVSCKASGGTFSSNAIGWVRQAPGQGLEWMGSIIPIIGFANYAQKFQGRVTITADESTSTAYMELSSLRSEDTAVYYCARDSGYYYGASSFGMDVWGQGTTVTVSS VL: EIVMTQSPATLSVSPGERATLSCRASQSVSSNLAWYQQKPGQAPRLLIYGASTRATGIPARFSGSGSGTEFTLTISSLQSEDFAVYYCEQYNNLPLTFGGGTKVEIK
9.35

Just for reference, patent US20250361322A1 is where these values come from.
